Origin of measurements: the supplement of paper PMC12764529

Recorded measurements of folding stability dG unfold, one per entry
assay: folding stability dG unfold from chymotrypsin proteolysis; higher = more stable
Answer format: numeric, kcal/mol implied, no suffix.

Could you share which folding stability dG unfold value was measured for SAGGAPTVELKTETIETEDGTYLVVEAKVPTPDVTLEIKLPHGGETEVVYDPETGTATVVFRLPPDWLSAGG [r13_380_TrMRF] ?
2.51

Given SAGGPMKPFLKNFSGPEEAIAFVNKLREELKGPVGLTLIFPDGSVIEVVDPQKLESIDNFEVIVTVSESAGG [r13_620_JUSTAS] , state its recorded folding stability dG unfold.
1.8

Reported folding stability dG unfold, sequence SAGMIKVEVYTLDPNGVLTKETYEIPLLPGTPIEEVVNELTEPGTGAVEIVEYNPPPPEIKIKIVRFPASAG [r5_227_TrMRF] : ____
2.94

Reported folding stability dG unfold, sequence SAGGMKVTPNGKVVKKKPKVPVKKVTLTVKVKTAEEAKALADALRDLGYKVTVDEETGVVTVEVEIESAGGS [r16_765_TrROS_Hall] : ____
1.5

Give the measured folding stability dG unfold of SAGPGWIMIRVKIKMRKWKDGKPVRRPIEIPIMAPADGDPEAARRKAEELAEFLAQMYGMEIEDVEIFPSAG [r5_497_TrROS] .
3.74

Would you mind telling me what folding stability dG unfold value was observed for SAMEKGKALKYREVIPLPDGPVELEIIYFPETGEYVAIIRNPSTGEKVEIPFKFDSLEDAVKAAKDFVASAG [r14_65_TrMRF] ?
3.71

Name the recorded folding stability dG unfold for FTMDEMKELADNIADNLAKEDGYKIKSVNIDATIPIPVYMKVRPDPNGEPRWEMHWMPIKVKINVEIKPPNS [r1_91_TrROS] .
2.55

Fill blank: measured folding stability dG unfold of the sequence SAGGSAGGSAGGAPEVKRVLVLVEVEVKPGDTIELPEGARVIWDPKTRRLYVLVEVELRPSAGGSAGGSAGG [r7_584_TrROS_Hall] is ____.
3.77

Which folding stability dG unfold value belongs to SAGGSAGGSSMEVVTPIERPVDVTSPENGEVVKVRVKTLVGKDPNAWTTETTLTLPDGTPVALSAGGSAGGS [r12_283_JUSTAS] ?
0.988

What value of folding stability dG unfold has been reported for the following sequence? SAGGSAGGSASIELPPDATVTLTTLDPATGTVTTTTVKVDSTGTTTLATTTTTVDPASAAAASAGGSAGGSA [r18_248_JUSTAS]
1.35

Need folding stability dG unfold of SAGGGISIVSGDPEITPEKAEAIAAELAAILEEKGFTPKDAELARLPGGRILVTITVDDGKPIVFSLSAGGS [r8_485_TrMRF] , thanks.
1.15

GET /values?readout=folding stability dG unfold&item= SAGGSAGGSADDEVVEIVDVLPLPNRPVLVVKVRGPDGQTKVYDPATGKWLTPEEAKAALSSAGGSAGGSAG [r3_206_TrMRF]
1.98

Any idea what its folding stability dG unfold is? The sequence is SAGSMLLIKITITFKDPNGNLLKTIPIEKEADPNDPEAIEKAKEEAEKLAEELLPEDELAEVKAEVLLLSAG [r5_793_JUSTAS]
2.36

Item SAGGSAGGSAGGIKDVKITEFERHPENNWYEVKISIPNGKPVEIPMNPGQSAEDILDQISAGGSAGGSAGGS [r10_984_TrROS] has what recorded folding stability dG unfold?
0.651

So what's the measured folding stability dG unfold for this one? SAGGSMPPIVASVVEVRFYRFEEEDRERLEAEVTLKLKDGSTATIRLEFPDLSEEELLKTVEETLLSAGGSA [r2_26_JUSTAS]
2.52

For the sequence SAGGKKIKVEVKIEIKIEKNPDGSYTIRIKITVKVTNENGEKFEVKVELEITLSEEELEKLKKLLEELSAGG [r13_412_TrROS_Hall] , what folding stability dG unfold is on record?
3.75

State the recorded folding stability dG unfold for this entry: SAGGMTKEKALELAEEIAREFAKKHGIEKLELKVEDVVEKEDEVIVRLKIVYPDKVYELDLVVPKDYVSAGG [r13_611_TrMRF]
4.06

###

Entries and their folding stability dG unfold
experiment: folding stability dG unfold (combined trypsin and chymotrypsin); higher = more stable

Recorded folding stability dG unfold of SAGGSAGGSKITITIAPGMSEEEAKKLAEELAKEFNIEIEVKIEPLKPVEKKFYVDKETNEIKSAGGSAGGS [r12_159_TrROS_Hall] , please.
< -1 kcal/mol

Requested field: folding stability dG unfold. Item: SAGMKPGEPIMTIKIKVKDPDNGKEVPINIPVRYQYDNGEPKRPISPDDALEEAKDLADRLKKDPNIKISAG [r5_426_TrROS]
< -1 kcal/mol

Give its folding stability dG unfold value. Item: SAGGSAGGSGPRAEELVVVNAPPGYRIPTPDGVPVTVPADAPNVLVRVTYGPGSSSVTVELVQSAGGSAGGS [r12_338_JUSTAS]
< -1 kcal/mol

###

experiment: folding stability dG unfold (combined trypsin and chymotrypsin); higher = more stable
folding stability dG unfold by entry:

Consider the reported folding stability dG unfold for these sequences:
SAGGSATIEEILKEIAEPHGAEPEVDPNSGVIEVDFPNGQEHTINVDDGKPIKIKYNPPGRMYIEISAGGSA [r15_256_TrROS] | < -1 kcal/mol
SGMDSNPKTTTENISFEEALKRLPSSVTSVEPRGESVVIKQSSPDSLTVVTMTRDPSSDSAPATTTTYLSSA [r9_604_JUSTAS] | 0.341 kcal/mol
SAGGSAVIEFELELRTRPDGSVEEEEIIAEARELIEAIPEAENAEILEIRREAFPDGTVRYHVRVRVPSAGG [r13_462_TrMRF] | 3.19 kcal/mol
SKKKKPPKKTVTVVVKVKPGEKITLTLKNKDGKEIAKVEFTKLPEDEPLYIATVTLKDGKLTIKVTKLKPSA [r9_238_TrROS_Hall] | 2.66 kcal/mol
SMPYLVRVLAELPDGELLGEAEAEVLPGEELVFSDPLPVRVRAVIYDPETDEPREVEADGRVGVLVVPVESA [r9_272_TrMRF] | < -1 kcal/mol
SAGGSAGGSAGEPEKPVLVKVILPGGKPLLIPGKREEAKKAVEELEKKGFPVEKAEVFDESAGGSAGGSAGG [r11_946_TrMRF] | < -1 kcal/mol

Need folding stability dG unfold of SAGGIRIDDEGMIQIYFPGWRHTIPIKPNLEITEITIPDDGYIKITFRIPGKTVKHEFPMLPPGQEISAGGS [r16_635_TrROS] , thanks.
1.82 kcal/mol

###

experiment: folding stability dG unfold from chymotrypsin proteolysis; higher = more stable
Parameter folding stability dG unfold: see the listing below.
Return type: number; implicit unit kcal/mol.

Worked set:
SAGGKKVIIPFKSPEQVKDWLENAPPGHDKVEIFSPETGYMAEFEVDPKENKIKEIKWERFDPDDGMFSAGG [r13_945_TrROS] | 0.0373
SAGGAPSSSPIPIDLGDPNDEEKLKAEVEAIEKEYAAKGVTPITVERVGENKYRIKIPTGGVATVALSAGGS [r16_703_JUSTAS] | -0.0876
SAGGKIKKGETVKIKIEIENKNGEKKTIELEVKKEDLEKLKELIEKLKEKGFKIKKIEIKVLKKEKKSAGGS [r8_497_TrROS_Hall] | 2.96
SAGPVKIQIEPDNGEEFEFRLPPNVSEIETSGDKFIIRFPPGMMFKIEIDEELPPGDTVPIRILDIVPSAGG [r19_274_TrROS] | 1.26
SAGGSAGGSAGMKIKTKNGEVIEIKVDKKTGKIEITFPDGKKITIDAPNLTIEDIKKLLESAGGSAGGSAGG [r11_729_TrMRF] | 2.34
SAGASPGVRLTERSEEVIEVEPGEKEKLKEEIKKSEKKYPGGLTEKVEYEVDPNSNKVTITITTTTGLSAGG [r19_45_JUSTAS] | 0.664
SAGMKVPVTVKMKAEKEEELEKVIKEIKEETGFEFEVEKNPETKEYTVKVYATPEVVEILKKKGFDVESAGG [r19_306_TrMRF] | 3.2
SAGGSAGGSAGKPKVKKITLKNPATGETVEAEVVEVDGYLVVRVRNKDDPEKTETFVFKLSAGGSAGGSAGG [r17_73_TrROS_Hall] | 2.58
SMLEKIEKAIESGNDGILVPLKLTPEEFKKVRAYLEELGFTLLSEEELAVGPVPVYELTFKVNTKTGEAASA [r9_498_JUSTAS] | 2.44
SAGGSAMPGMTLQELLDAIRALLPPGARARIYVRNPDGEVIELTDLDDITVEDLENAEIRIEIEPVSAGGSA [r15_144_TrROS_Hall] | 4.01

Which folding stability dG unfold value belongs to SAGGSAGGSGMPTRNVPITTPDGKVVTVVERPPERAEIIFPDGSRATIVDPARGYEEITITPESAGGSAGGS [r12_491_JUSTAS] ?
0.945

What folding stability dG unfold value was documented for this sequence, SAGGMTITFTLEFDLEDDRRITVTATIDPTGDDVLITVRVELTLPNGEKLEFTATIVLPPGAHPDELISAGG [r13_3_TrMRF] ?
5.25

Could you tell me which folding stability dG unfold is on file for SAGGSAGGSAGKKLKPFKVVEVKEPVKEGDVIEVENEATGELYRFTVVNGEIKIEKVKLDSAGGSAGGSAGG [r11_94_TrROS_Hall] ?
0.442
